experiment: Hamster pharmacokinetics (plasma and lung); type: in vivo; details: lung / plasma; single IP dose at 10 mg/kg in male hamster; read-out: AUClung/AUCplasma
experimentalReadout: Kp

GET /values?readout=Kp&item= O=C(CN1C(=O)C(NC(=O)OCc2ccccc2)COc2ccccc21)NC(CC1CCNC1=O)C(=O)COC(=O)c1c(Cl)cccc1Cl (stereo not shown)
3.2

====

test: Hamster pharmacokinetics (plasma and lung); type: in vivo; details: plasma; single IP dose at 10 mg/kg in male hamster; read-out: plasma T1/2 (converted)
experimentalReadout: half-life (min)
Write the value in min as a bare number.

Given the entry O=C(CN1C(=O)C(NC(=O)OCc2ccccc2)COc2ccccc21)NC(CC1CCNC1=O)C(=O)COC(=O)c1c(Cl)cccc1Cl (stereo not shown) , report its measured half-life.
44
